measurement.notes: AUC (0 to t) in Sprague-Dawley rat at 5 mg/kg, po by LC/MS/MS analysis
Assay type: ADME, organism-based
measurement.context: in vivo
Each record here notes measured AUC(0-t).

| sample.smiles | result.unit | AUC(0-t) |
| --- | --- | --- |
| CS(=O)(=O)c1ccc(C(=O)Nc2ccc(Cl)c(-c3ccccn3)c2)c(Cl)c1 | ng·h/mL | 22400 |
| Cc1ccc(CN2CCOCC2)cc1NC(=O)c1ccc(Nc2nccc(-c3ccc(OC(F)(F)F)cc3)n2)cc1 | ng·h/mL | 6220 |
| Cc1ccc(CN2CCOCC2)cc1NC(=O)c1ccc(Nc2ncc(F)c(-c3ccc(OC(F)(F)F)cc3)n2)cc1 | ng·h/mL | 4720 |
| Cc1c(C(=O)Nc2ccc(N3C[C@@H](C)O[C@@H](C)C3)nc2)cccc1-c1ccc(OC(F)(F)F)cc1 | ng·h/mL | 8830 |
| Cc1ccc(CN2CCOCC2)cc1NC(=O)c1ccc(Nc2nccc(-c3ccc(OC(F)(F)F)cc3)n2)cn1 | ng·h/mL | 660 |
| Cc1ccc(CN2CCOCC2)cc1NC(=O)c1ccc(Nc2ncc(F)c(-c3ccc(OC(F)(F)F)cc3)n2)cn1 | ng·h/mL | 923 |

Hey, just so you know, these numbers are from ChEMBL document CHEMBL3763021.
